All figures here come from PubChem BioAssay.

# composite z-score per record follows
molecular target: Streptavidin (Streptomyces avidinii) (UniProt P22629); test: streptavidin binders on small-molecule microarray, primary screen, artefact control for SMM compound annotation, biophysical, 635/667 nm fluorescence (AID 1147); details: streptavidin binding, higher = more signal;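 also: signal reflects streptavidin binding to arrayed compounds as a control protein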
Sequence (P22629 whole entry, looked up): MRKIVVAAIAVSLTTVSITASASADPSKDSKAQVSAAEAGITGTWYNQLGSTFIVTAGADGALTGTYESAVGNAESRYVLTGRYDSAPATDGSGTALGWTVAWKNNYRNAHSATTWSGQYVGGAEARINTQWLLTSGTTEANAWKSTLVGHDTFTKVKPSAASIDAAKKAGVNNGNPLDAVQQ

Compound: CC(CCN1CCCCc2nc(C)c(C)cc21)=NOC[C@@H](O)COCc1ccco1
composite z-score: -0.555
//
Compound: CO[C@H]1COC(=O)[C@@H](C)COC(=O)[C@H](COCc2ccccc2)NC(=O)CC=C[C@H]1C
composite z-score: -0.807
//
Compound: COC(=O)CC=C[C@@H](C)[C@@H](C=NO[C@H](C)c1cn([C@H](CO)Cc2ccccc2)nn1)OC
composite z-score: 0.21
//
Compound: C[C@@H](c1ccccc1)N1C(=O)[C@H]2[C@H]3[C@H](O)[C@H](O)CC(=NOCc4ccccc4)[C@H]3CC[C@H]2C1=O
composite z-score: 0.587
